# Target: G-protein coupled receptor 55 (Homo sapiens)
# Assay Procedure: GPR55 antagonists blocking LPI-driven arrestin recruitment, primary screen, imaging, U2OS, beta-arrestin-GFP, LPI agonist (AID 2013);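 also: U2OS cells stably carrying GPR55 and arrestin-GFP stimulated by 5 µM LPI near EC80; imaged beta-arrestin-GFP aggregate spots per cell after agonist stimulation; plate controls were LPI-stimulated DMSO wells for no effect and DMSO wells without LPI for full effect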
# Condition Set: U2OS GPR55 beta-arrestin-GFP translocation imaging, LPI antagonism; at 10 µM; stronger effect = higher value
In all, about 290,000 compounds went through this assay and about 370 (0.13%) were called active. The full list was thinned out, with actives kept by preference. Measured potencies and affinities stand elsewhere.
Quantity: inhibition (%)

molecule="CCOC(=O)c1cc(C(O)(C(=O)OC)C(F)(F)F)c(/N=C/N(C)C)o1 (centres undefined)" target="G-protein coupled receptor 55 (Homo sapiens)" meas_value=14.3
molecule=CC1=Nc2ccccc2/C1=C/c1c(O)n(C)c(=O)[nH]c1=O target="G-protein coupled receptor 55 (Homo sapiens)" meas_value=1.1
molecule=O=c1[nH]c(=O)n(-c2cccc(F)c2)c(O)c1/C=C1\C=Nc2ccccc21 target="G-protein coupled receptor 55 (Homo sapiens)" meas_value=8.8
molecule=C/C(=N\Nc1ccccc1)c1c(O)[nH]c(=O)[nH]c1=O target="G-protein coupled receptor 55 (Homo sapiens)" meas_value=-0.7
